- system under test: Prostaglandin G/H synthase 1 (Rattus norvegicus, UniProt Q63921); also: assay procedure not described here
- Sequence (Q63921 whole entry): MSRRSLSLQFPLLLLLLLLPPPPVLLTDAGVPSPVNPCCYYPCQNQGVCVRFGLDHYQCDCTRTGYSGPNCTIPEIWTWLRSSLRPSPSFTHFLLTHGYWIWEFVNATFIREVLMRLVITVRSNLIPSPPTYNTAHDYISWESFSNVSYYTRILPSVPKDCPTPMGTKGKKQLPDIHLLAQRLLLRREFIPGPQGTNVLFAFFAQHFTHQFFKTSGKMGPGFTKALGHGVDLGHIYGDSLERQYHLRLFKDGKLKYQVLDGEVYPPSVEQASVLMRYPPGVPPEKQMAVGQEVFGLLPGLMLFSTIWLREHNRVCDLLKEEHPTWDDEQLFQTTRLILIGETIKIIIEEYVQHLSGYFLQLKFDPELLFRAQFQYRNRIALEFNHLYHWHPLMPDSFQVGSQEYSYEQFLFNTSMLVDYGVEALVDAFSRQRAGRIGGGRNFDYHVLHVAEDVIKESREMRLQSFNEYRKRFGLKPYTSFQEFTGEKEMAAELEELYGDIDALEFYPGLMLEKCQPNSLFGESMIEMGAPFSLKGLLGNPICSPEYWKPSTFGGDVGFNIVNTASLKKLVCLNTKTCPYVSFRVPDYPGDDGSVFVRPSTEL
- Type: functional
quantity name: AC50

Would you please look over these solved cases?
[[record]]
compound = "CC1=C(/C=C/C(C)=C/C=C/C(C)=C/CO)C(C)(C)CCC1"
quantity_name = "AC50"
assay_value = "> 10 µM"

[[record]]
compound = "CCCC(C)(COC(N)=O)COC(N)=O [MEPROBAMATE]"
quantity_name = "AC50"
assay_value = "> 10 µM"

[[record]]
compound = "O=C1Nc2ccc(Cl)cc2C(c2ccccc2Cl)=NC1O (centres undefined)"
quantity_name = "AC50"
assay_value = "> 30 µM"

[[record]]
compound = "C=CCN1CCc2nc(N)sc2CC1 [TALIPEXOLE]"
quantity_name = "AC50"
assay_value = "> 30 µM"

[[record]]
compound = "CCCc1cc(=O)[nH]c(=S)[nH]1"
quantity_name = "AC50"
assay_value = "6.6 µM"

[[record]]
compound = "CCOC(=O)C1=C(C)NC(C)=C(C(=O)OCC)C1c1ccccc1/C=C/C(=O)OC(C)(C)C"
quantity_name = "AC50"
assay_value = "> 30 µM"

[[record]]
compound = "CC(CN(C)C)C(C)(O)Cc1ccc(Cl)cc1 (centres undefined)"
quantity_name = "AC50"
assay_value = "> 30 µM"

[[record]]
compound = "Cc1nnc(SCC2=C(C(=O)O)N3C(=O)[C@@H](NC(=O)Cn4cnnn4)[C@H]3SC2)s1"
quantity_name = "AC50"
assay_value = "160 µM"


Consider the following items and state reported AC50 for each.
1. CCOC(=O)c1ccc(C#Cc2ccc3c(c2)C(C)(C)CCS3)nc1
2. CC[C@H](C)C(=O)O[C@H]1C[C@@H](C)C=C2C=C[C@H](C)[C@H](CC[C@@H]3C[C@@H](O)CC(=O)O3)[C@H]21
3. CCOC(=O)c1ccc(N)cc1
4. CN(Cc1cnc2nc(N)nc(N)c2n1)c1ccc(C(=O)N[C@@H](CCC(=O)O)C(=O)O)cc1 [METHOTREXATE]

1. > 30 µM
2. > 30 µM
3. > 10 µM
4. > 30 µM
